Reported values of pIC50 Category (Activity) for individual entries
biological target: Recombinant human FAP (R&D systems, #3715-SE) (human, UniProt Q12884 26-760); experiment: cell-based or functional assay
Sequence (Q12884 26-760 limits assumed): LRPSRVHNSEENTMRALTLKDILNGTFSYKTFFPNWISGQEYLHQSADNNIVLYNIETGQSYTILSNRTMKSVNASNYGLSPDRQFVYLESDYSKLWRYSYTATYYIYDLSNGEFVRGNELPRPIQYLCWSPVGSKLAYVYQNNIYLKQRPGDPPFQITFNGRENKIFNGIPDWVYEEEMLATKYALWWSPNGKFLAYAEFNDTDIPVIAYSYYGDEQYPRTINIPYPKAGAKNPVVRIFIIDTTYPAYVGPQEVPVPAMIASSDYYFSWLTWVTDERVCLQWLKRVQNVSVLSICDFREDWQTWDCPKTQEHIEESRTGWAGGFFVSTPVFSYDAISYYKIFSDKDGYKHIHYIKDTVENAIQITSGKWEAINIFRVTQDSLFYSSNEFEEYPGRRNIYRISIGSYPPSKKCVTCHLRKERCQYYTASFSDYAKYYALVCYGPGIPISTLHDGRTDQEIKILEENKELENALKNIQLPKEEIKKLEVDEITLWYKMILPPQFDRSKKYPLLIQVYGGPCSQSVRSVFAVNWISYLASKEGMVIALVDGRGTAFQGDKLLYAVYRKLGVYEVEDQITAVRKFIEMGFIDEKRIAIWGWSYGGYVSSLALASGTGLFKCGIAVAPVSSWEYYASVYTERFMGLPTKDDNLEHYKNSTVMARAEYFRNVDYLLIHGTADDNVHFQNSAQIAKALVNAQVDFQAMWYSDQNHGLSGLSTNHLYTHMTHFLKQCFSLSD
Numbered stars: 1 amine (or outer) side, 2 acyl side, 3 side chain; on linkers, the order of the positions; unused ones are H or OH. Bridge positions count the residues as written; N and C are the ends. Square brackets hold non-standard residues; d marks the D form. * marks the point of attachment. mXylylene = c1cc(C[*:1])cc(C[*:2])c1; 4Amb = NCc1ccc(C(=O)O)cc1; Hexanoyl = CCCCCC(=O)*
ENDPOINT_NAME: pIC50 Category (Activity)

{"columns": ["BINDER", "REPORTED_RESULT"],
 "data": [
  ["Hexanoyl-CPPTEFCD[4Amb]R-NH2 (linker 1-7 via mXylylene; SMILES CCCCCC(=O)N[C@H]1CSCc2cccc(c2)CSC[C@@H](C(=O)N[C@@H](CC(=O)O)C(=O)NCc2ccc(C(=O)N[C@@H](CCCNC(=N)N)C(N)=O)cc2)NC(=O)[C@H](Cc2ccccc2)NC(=O)[C@H](CCC(=O)O)NC(=O)[C@H]([C@@H](C)O)NC(=O)[C@@H]2CCCN2C(=O)[C@@H]2CCCN2C1=O, also called 3BP-3301) [Hex-[Cys(3MeBn)-Pro-Pro-Thr-Glu-Phe-Cys]-Asp-Pamb-Arg-NH2]", "> 8 pIC50"],
  ["Hexanoyl-CPPTQFCD-NH2 (linker 1-7 via tMeBn(GaDOTA-PP); also: gallium complex of DOTA, also called 3BP-3592) [Hex-[Cys(tMeBn(GaDOTA-PP))-Pro-Pro-Thr-Gln-Phe-Cys]-Asp-NH2]", "> 8 pIC50"],
  ["Ac-MCPPTEFCDHFRD-NH2 (linker 2-8 via mXylylene; SMILES CSCC[C@H](NC(C)=O)C(=O)N[C@H]1CSCc2cccc(c2)CSC[C@@H](C(=O)N[C@@H](CC(=O)O)C(=O)N[C@@H](Cc2c[nH]cn2)C(=O)N[C@@H](Cc2ccccc2)C(=O)N[C@@H](CCCNC(=N)N)C(=O)N[C@@H](CC(=O)O)C(N)=O)NC(=O)[C@H](Cc2ccccc2)NC(=O)[C@H](CCC(=O)O)NC(=O)[C@H]([C@@H](C)O)NC(=O)[C@@H]2CCCN2C(=O)[C@@H]2CCCN2C1=O, also called 3BP-2975) [Ac-Met-[Cys(3MeBn)-Pro-Pro-Thr-Glu-Phe-Cys]-Asp-His-Phe-Arg-Asp-NH2]", "> 8 pIC50"]
]}
